All values here come from PubChem BioAssay.

test system: Neuregulin-1 EGF-like domain; assay: binders of neuregulin-1 EGF-like domain, primary screen, biochemical, small-molecule microarray, 635 nm fluorescence (AID 1081); conditions: small-molecule microarray binding, higher = more signal;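 also: binding of the protein to compounds printed on small-molecule microarray slides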
The reader will find reported composite z-score values listed item by item below.
READOUT_LABEL: composite z-score

compound=[N-]=[N+]=Nc1ccccc1[C@@H]1OC(c2ccc(OCCCO)cc2)=N[C@]1(Cc1ccccc1)C(=O)NCc1ccccc1 value_reported=1.2
compound=CCOC(=O)C1=CC[C@@H](c2ccccc2)N(S(=O)(=O)c2ccc(C)cc2)[C@H]1c1cccc(OC)c1 value_reported=0.746
compound=COc1ccc([Si](C)(C)[C@@H]2[C@@H](CCn3cc([C@H](O)c4ccccc4)nn3)O[C@]3(C(=O)N(c4ccccc4)c4ccccc43)[C@H]2C)cc1 value_reported=0.75
compound=C=C[C@@H](C)[C@@H](OC(=O)Nc1ccc(SC)cc1)c1ccc(OCCO)cc1 value_reported=1.26
compound="CCCCCN1CC=CC23O[C@@H]4C=CCOC(=O)[C@@H]4[C@H]2C(=O)N(CCO)[C@@H]3C1=O (stereo partly drawn)" value_reported=1.48
compound=C#C[C@@H](CC)O[Si](C#CCCCC#N)(C(C)C)C(C)C value_reported=0.74
compound=COC(=O)C(CC#Cc1ccc2c(c1)[C@]1(C(=O)N2)[C@H](c2ccc(OCCO)cc2)N2[C@H](c3ccccc3)[C@H](c3ccccc3)OC(=O)[C@H]2[C@@H]1C(=O)N1CCN(c2ncccn2)CC1)C(=O)OC value_reported=1.27
compound=Cc1ccc(S[C@]2(C(=O)NC(C)C)CC(=O)N(Cc3ccccc3Cl)[C@@H]2c2ccc(CO)cc2)cc1 value_reported=1.37

###

assay: A549 lung cancer cell viability effects, profiling panel, resazurin fluorescence, 24 h, PK04 Diversity Set (AID 1171); conditions: higher = more signal, called active from +8 up or from −8 down; also: test concentration not given here
Reported z-score values for the following molecules.
READOUT_LABEL: z-score

molecule=COCC(=C=CC[C@@H](O)c1ccc(OCCO)cc1)CCO value_reported=1.12
molecule=CCCCC(=O)N(CCN1CCOCC1)[C@@H]1CC(C(=O)NCCO)=C[C@H](Oc2c(I)cc(CO)cc2OC)[C@H]1O value_reported=-0.0043
molecule=CCOC(=O)C[C@H]1[C@H](OC(=O)c2ccccc2-c2ccccc2)[C@@H](NC(=O)c2ccc3ccccc3n2)c2cc(OCCCO)ccc2N1C(=O)c1ccccc1 value_reported=0.143
molecule=C=CCNC(=O)[C@H]1[C@@H]2C(=O)O[C@@H](c3ccccc3)[C@@H](c3ccccc3)N2[C@@H](c2ccc(O)cc2)[C@]12C(=O)N(C(=O)OCCOC)c1ccc(C#CCC(C(=O)OC)C(=O)OC)cc12 value_reported=0.979
molecule=C=C(COC)/C(=C/C[C@@H](OC(=O)c1ccncc1)c1ccccc1OCCO)c1cc(C(=O)OC)ccc1OC value_reported=0.314
molecule="CCC(CC)C(O)C1C=CC2C(=O)N(c3ccccc3)C(=O)C2N1Nc1ccc([N+](=O)[O-])cc1 (centres undefined)" value_reported=-0.517
molecule=CC(C)C[C@@H]1NC(=O)[C@H]2C[C@@H](C(=O)NCCCCCN)[C@@H](c3cccc(OCCO)c3)N2C1=O value_reported=0.11
molecule=[N-]=[N+]=Nc1ccccc1C[C@@]1(C(=O)O)N=C(c2ccc(OCCCO)cc2)O[C@@H]1c1ccccc1N=[N+]=[N-] value_reported=0.13
molecule=C[C@]1(C(=O)O)c2ccccc2C(=O)N(Cc2ccc(OC(F)(F)F)cc2)[C@H]1c1ccc(CO)cc1 value_reported=0.244

###

biological target: Dickkopf-related protein 1 (Homo sapiens) (UniProt O94907); assay: DKK1 binders on small-molecule microarrays, primary screen, biochemical, small-molecule microarray, 635 nm fluorescence scan (AID 1106); conditions: DKK1 binding, higher = more signal;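 also: score merges emission near 667 nm with signal to noise over three replicate slides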
Sequence (O94907 whole entry, looked up): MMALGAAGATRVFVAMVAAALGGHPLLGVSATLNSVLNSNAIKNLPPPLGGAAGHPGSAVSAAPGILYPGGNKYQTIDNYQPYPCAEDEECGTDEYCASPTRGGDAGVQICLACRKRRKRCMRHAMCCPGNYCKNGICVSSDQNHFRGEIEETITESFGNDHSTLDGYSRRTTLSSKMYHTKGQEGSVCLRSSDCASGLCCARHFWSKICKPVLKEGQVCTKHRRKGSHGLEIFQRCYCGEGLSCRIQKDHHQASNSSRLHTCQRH
Measured composite z-score of individual entries
READOUT_LABEL: composite z-score

compound="CC1CC/C=C\\[C@H]2OC34C=CCN(C(C)(C)C)C(=O)[C@H]3N(C(CO)C(C)C)C(=O)[C@@H]4C2C(=O)O1 (stereo partly specified)" readout_label="composite z-score" value_reported=0.391
compound=C=C(CCCC)/C(=C/C[C@H](OC(C)=O)c1ccc(OCCO)cc1)c1cc(C(=O)OC)ccc1OC readout_label="composite z-score" value_reported=-0.304
compound=CCOC(=O)C[C@H]1[C@H](OC(=O)c2ccc(-c3ccccc3)cc2)[C@@H](NC(=O)CC(C)C)c2cc(OCCCO)ccc2N1C(=O)c1ccccc1 readout_label="composite z-score" value_reported=0.455
compound="C=CCC(OC(C)=O)[C@@H]1[C@@H](N(Cc2cccc3ccccc23)C(=O)c2cccc3ccccc23)c2cc(OCCCO)ccc2N1C(=O)c1ccc2ccccc2c1 (stereo partly specified)" readout_label="composite z-score" value_reported=0.226
compound=[N-]=[N+]=NCc1ccccc1C[C@]1(C(=O)N2CCOCC2)COC(c2ccc(OCCCO)cc2)=N1 readout_label="composite z-score" value_reported=-0.921
compound=COCCOC(=O)N1C(=O)[C@@]2(c3ccccc31)[C@H](c1ccc(OCCO)cc1)N1[C@H](c3ccccc3)[C@H](c3ccccc3)OC(=O)[C@H]1[C@@H]2C(=O)N1CCCCCCC1 readout_label="composite z-score" value_reported=2.62
compound=CCOC(=O)C1=C[C@@H](c2ccccc2)N(S(=O)(=O)c2ccc(C)cc2)[C@H]1c1ccccc1 readout_label="composite z-score" value_reported=-0.399
compound="C=CCC(OC(C)=O)[C@@H]1[C@@H](N(Cc2cccc3ccccc23)C(=O)c2ccc(-c3ccccc3)cc2)c2cc(OCCCO)ccc2N1C(=O)c1ccc(-c2ccccc2)cc1 (stereo partly specified)" readout_label="composite z-score" value_reported=-0.242
compound=CC(C)C(=C=CC[C@@H](O)c1cccc(OCCO)c1)C[C@@H](O)COCc1ccccc1 readout_label="composite z-score" value_reported=-0.445
compound=Cc1cccc([C@H]2C[C@H]3C(I)=C[C@@H]2C(=O)[C@]32CO2)c1 readout_label="composite z-score" value_reported=0.125
compound=C[C@]1(C(=O)NCCN2CCOCC2)c2ccccc2C(=O)N(Cc2cc(F)cc(C(F)(F)F)c2)[C@H]1c1ccc(CO)cc1 readout_label="composite z-score" value_reported=-0.876
compound=CC(C)C[C@@H]1NC(=O)[C@@H]2C[C@H](C(=O)NCCCCCC[N+](C)(C)C)[C@H](c3cccc(OCCO)c3)N2C1=O readout_label="composite z-score" value_reported=0.449
compound=CN(C)C(=O)[C@@]1(Cc2ccccc2)COC(c2ccc(OCCCO)cc2)=N1 readout_label="composite z-score" value_reported=-0.59
compound=O=C(CS)NCCCCCNC(=O)[C@@H]1C[C@@H]2C(=O)N[C@@H](Cc3ccccc3)C(=O)N2[C@@H]1c1cccc(OCCO)c1 readout_label="composite z-score" value_reported=1.25
compound=CCCNC(=O)[C@@]1(C)c2ccccc2C(=O)N(Cc2ccccc2)[C@H]1c1ccc(CO)cc1 readout_label="composite z-score" value_reported=-0.766
compound=CC(C)C[C@@H]1NC(=O)[C@H]2C[C@@H](C(=O)NCCCCCN)[C@@H](c3cccc(OCCO)c3)N2C1=O readout_label="composite z-score" value_reported=0.183
compound="Cc1ccccc1C(O)C1C=CC2C(=O)N(c3ccccc3)C(=O)C2N1Nc1ccc([N+](=O)[O-])cc1 (stereo unspecified)" readout_label="composite z-score" value_reported=0.0125
compound="COc1cc2c(cc1O)C(c1cccs1)N(Cc1sc3ccccc3c1Cl)CC2 (stereo unspecified)" readout_label="composite z-score" value_reported=0.726
compound=CC(C)(C)OC(=O)CC[C@]1(C(=O)N2CCCCC2)COC(c2ccc(OCCCO)cc2)=N1 readout_label="composite z-score" value_reported=-0.421
compound="CC1(C)C(=O)C(c2ccccc2)=C2CN3C(=O)N(CCc4ccccc4)C(=O)C3(Cc3ccc(F)cc3)C=C21 (stereo unspecified)" readout_label="composite z-score" value_reported=-1.11
compound=Cc1ccc(S[C@]2(C(=O)NC(C)C)CC(=O)N(Cc3ccccc3Cl)[C@@H]2c2ccc(CO)cc2)cc1 readout_label="composite z-score" value_reported=-1.47
compound=CCOC(=O)C=Cc1cc(F)ccc1O readout_label="composite z-score" value_reported=-0.258
compound=C=C(COC)C(=O)CC[C@@H](OC(=O)c1cccnc1)c1ccccc1OCCO readout_label="composite z-score" value_reported=0.18
compound=C=CCN1C(=O)[C@@]2(O[C@@H](CCO)[C@H]([Si](C)(C)c3ccc(OC)cc3)[C@H]2C)c2cc(N3CCOC3=O)ccc21 readout_label="composite z-score" value_reported=-0.381
compound=CN(C)CCCNC(=O)[C@@H]1c2ccccc2C(=O)N(C2CCCCC2)[C@H]1c1ccc(CO)cc1 readout_label="composite z-score" value_reported=1.15
compound=COCCCNC(=O)[C@@]1(Sc2ccc(C)cc2)CC(=O)N(C(C)C)[C@@H]1c1ccc(CO)cc1I readout_label="composite z-score" value_reported=-1.12
compound=CC(C)CNC(=O)[C@@H]1c2ccccc2C(=O)N(C2CCCCC2)[C@H]1c1ccc(CO)cc1 readout_label="composite z-score" value_reported=-0.308
compound="CCOC(=O)C1=CCC(c2ccccc2)N(S(=O)(=O)c2ccc([N+](=O)[O-])cc2)C1 (stereo unspecified)" readout_label="composite z-score" value_reported=-0.115
compound=CCOC(=O)C[C@H]1[C@H](OC(=O)c2cc3ccccc3oc2=O)[C@@H](NC(=O)c2ccc3ccccc3c2)c2cc(OCCCO)ccc2N1C(=O)Cc1ccc(OC)cc1 readout_label="composite z-score" value_reported=0.427
compound="C=CCC(OC(C)=O)[C@@H]1[C@@H](N(Cc2ccc(-c3ccccc3)cc2)C(=O)c2ccc(C)cc2)c2cc(OCCCO)ccc2N1C(=O)Cc1ccc2ccccc2c1 (stereo partly specified)" readout_label="composite z-score" value_reported=0.258
compound=CC(C)CNC(=O)[C@@]1(c2ccc([N+](=O)[O-])cc2)CC(=O)N(C2CCCCC2)[C@@H]1c1ccc(CO)cc1 readout_label="composite z-score" value_reported=-0.362
